Each recorded value in this set is attributed to patent US8378117B2.

- subject of test: CB2 receptor (Homo sapiens, UniProt P34972)
- Construct: expressed in transfected cells
- Sequence (P34972 whole entry): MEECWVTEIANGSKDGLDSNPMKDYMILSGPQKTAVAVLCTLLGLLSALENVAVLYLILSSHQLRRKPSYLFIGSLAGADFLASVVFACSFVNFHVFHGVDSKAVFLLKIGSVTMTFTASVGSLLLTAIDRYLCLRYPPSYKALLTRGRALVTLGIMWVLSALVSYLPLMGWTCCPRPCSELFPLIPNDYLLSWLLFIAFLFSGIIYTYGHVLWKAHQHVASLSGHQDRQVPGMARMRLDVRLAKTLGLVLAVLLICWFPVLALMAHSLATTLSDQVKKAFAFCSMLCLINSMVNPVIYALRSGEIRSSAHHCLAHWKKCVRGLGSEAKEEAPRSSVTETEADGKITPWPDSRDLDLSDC
- assay details: Binding assay for CB2 agonists or inverse agonists (SK-N-MC membranes, [3H]-CP-55,940)
- condition: test concentration 0.2 μM (footnote 2); read-out: CB2 receptor binding percent inhibition
Classes are defined on inhibition at 0.2 µM with ranges low = under 7%, middle = from 7% up to 30%, high = 30% and over

Examples with answers:
C[C@@H](NC(=O)c1nn(-c2ccncc2)c2c1CCCC/C2=C\c1ccc(Cl)cc1)c1ccccc1	middle
CC(C)[C@@H](CO)NC(=O)c1nn(-c2ccc(Cl)cc2Cl)c2c1CCCC[C@@H]2Cc1cccc(Cl)c1	low
O=C(Nc1ccncc1)c1nn(-c2ccc(Cl)cc2Cl)c2c1CCCC/C2=C\c1ccc(Cl)cc1	low
O=C(N[C@H](CO)c1ccccc1)c1nn(-c2ccc(F)cc2F)c2c1CCCCC2Cc1cccc(F)c1 (stereo partly shown)	middle
C[C@H](NS(=O)(=O)/C=C/c1n[nH]c2c1CCCCC2Cc1cccc(Cl)c1)c1ccccc1 (stereo partly shown)	high
O=C(NN1CCOCC1)c1n[nH]c2c1CCCC/C2=C\c1ccc(Cl)cc1	high

Prompt: Could you tell me which band `O=C(NN1CCOCC1)c1nn(-c2cc(Cl)ccc2Cl)c2c1CCCC/C2=C\c1ccc(Cl)cc1` belongs to?
Response: low

Prompt: Could you tell me which band `Cn1nc(C(=O)n2ccnc2)c2c1/C(=C/c1cccc(F)c1)CCCC2` belongs to?
Response: low

Prompt: Could you tell me which band O=C(N[C@@H](CCl)c1ccccc1)c1nn(-c2nccc(C(F)(F)F)n2)c2c1CCCCC2Cc1cccc(Cl)c1 (stereo partly shown) belongs to?
Response: middle

Prompt: Could you tell me which band `O=C(c1nn(-c2cc(Cl)ccc2Cl)c2c1CCCC/C2=C\c1ccc(Cl)cc1)N1CCOCC1` belongs to?
Response: low

Prompt: Could you tell me which band C[C@@H](NC(=O)c1nn(-c2ccnc3cc(Cl)ccc23)c2c1CCCCC2Cc1cccc(Cl)c1)c1ccccc1 (stereo partly shown) belongs to?
Response: middle

Prompt: Could you tell me which band `O=C(NN1CCCCC1)c1nn(-c2ccncc2)c2c1CCCC/C2=C\c1ccc(Cl)cc1` belongs to?
Response: high

Prompt: Could you tell me which band `O=C(NN1CCOCC1)c1nn(-c2ccncc2)c2c1CCCC/C2=C\c1ccc(Cl)cc1` belongs to?
Response: middle
